Below: a set of entries, each annotated with reported growth.
# Test system: SF-295 CNS
# Test name: NCI-60 one-dose screen, 48 h (100 = growth as untreated, 0 = no growth, -100 = all killed)
# Test context: 10 µM unless noted
About 83,000 compounds went through this panel and 20% of them were active in at least one assay; those are over-represented in the sample as a whole. Calls of active or inactive are those of the source. Rule for the calls: active = growth percent below 10; inactive = the rest.

Compound | growth
C/C(=N\NC(N)=S)c1nc2ccc(Cl)cc2[nH]1 | 44.8% (inactive)
N#C/C(=C\c1ccc(Br)cc1)n1nnc2ccccc21 | 16.1% (inactive)
COc1ccc(OC)c(/C=C2\COc3ccc(O)c(O)c3C2=O)c1 | 78.4% (inactive)
CNC=O | 96.8% (inactive)
O=C(c1ccccc1)c1ccc(N2C(=O)C3C4c5ccccc5C(/C=C/C(=O)c5ccccn5)(c5ccccc54)C3C2=O)cc1 (stereo unspecified) | 10.8% (inactive)
N#Cc1c(N)nc2c(nnn2-c2cccc(C(F)(F)F)c2)c1N | 95.6% (inactive)
Cc1ccc(/C(=N\N=C(N)N)c2ccccc2)cc1 | 1.44% (active)
C=C(Cl)COC(=O)C(C)(C)O | 102% (inactive)
CC(C)N(CCOC(=O)Nc1ccccc1Cl)C(C)C | 104% (inactive)
CC(c1ccc(-n2cccn2)cc1)c1cnc(N2CCc3ccc(C(N)=O)cc3C2)s1 (stereo unspecified) | 52.3% (inactive)
Cc1ccc(S(=O)(=O)Nc2sccc2-c2nc(-c3ccccc3)no2)cc1 | 99.3% (inactive)
